Experiment: in vitro
Settings: rat, hepatocytes
Param threshold (9 µL/min/1e6 cells) applies to hepatocyte CLint; output class 1 when value >= threshold, class 0 when value < threshold.

Reference set, count: 4
> print(dat)
                                   compound  label.class
1  CC(C)(F)CN1[C@@H]2CCC[C@@]1(c1c(F)cc(/C=C/C(=O)O)cc1F)c1[nH]c3ccccc3c1C2      class 1
2  C[C@@H]1Cc2c([nH]c3ccccc23)[C@@](C)(c2c(F)cc(OCCN3CC(CF)C3)cc2F)N1CC(C)(C)F      class 1
3  C[C@@H]1Cc2c([nH]c3ccccc23)[C@@H](c2c(F)cc(/C=C/C(=O)O)cc2F)N1CC(C)(C)F [AZD-9496]      class 0
4  CC(C)(F)CN1[C@@H]2CCC[C@@]1(c1c(F)cc(OCCN3CC(CF)C3)cc1F)c1[nH]c3ccccc3c1C2      class 1

Next item in the queue.
Check the entry CC(C)(F)CN1[C@@H]2C=CC[C@@]1(c1c(F)cc(/C=C/C(=O)O)cc1F)c1[nH]c3ccccc3c1C2 : does hepatocyte CLint equal or exceed 9 µL/min/1e6 cells?
class 0
